# System: Echinochloa crus-galli (L.) P. Beauv. var. formosensis Ohwi
# procedure-details: Test for Herbicidal Effect in Flooding Treatment (#2), ECHDG at 2-2.5 leaf stage
# Format: in vivo
# condition-notes: Echinochloa crus-galli, 504 h; flooding treatment (#2), ECHDG at 2-2.5 leaf stage, dose of 0.2 kg/ha, day 21, visual observation; read-out: growth inhibition effect
assay-readout: inhibition at 200 g/ha

>  <molecule>
CCOc1ccc(Cl)c(Cl)c1CS(=O)(=O)c1ncc(Cl)s1

>  <assay-readout>
inhibition at 200 g/ha

>  <result>
≥ 90%

$$$$
>  <molecule>
O=S(=O)(Cc1ccccc1F)c1ncc(Cl)s1 [comparative compound A, reference compound]

>  <assay-readout>
inhibition at 200 g/ha

>  <result>
10 to 30%

$$$$
>  <molecule>
O=S(=O)(Cc1c(F)cccc1OC(F)F)c1ncc(Cl)s1

>  <assay-readout>
inhibition at 200 g/ha

>  <result>
≥ 90%

$$$$
>  <molecule>
O=S(=O)(Cc1ccccc1OC(F)F)c1ncc(Cl)s1

>  <assay-readout>
inhibition at 200 g/ha

>  <result>
≥ 90%

$$$$
>  <molecule>
O=S(=O)(Cc1ccccc1Cl)c1ncc(Cl)s1 [comparative compound B, reference compound]

>  <assay-readout>
inhibition at 200 g/ha

>  <result>
30 to 50%

$$$$
>  <molecule>
CCOc1cccc(F)c1CS(=O)(=O)c1ncc(Cl)s1

>  <assay-readout>
inhibition at 200 g/ha

>  <result>
≥ 90%

$$$$
>  <molecule>
CCOc1cccc(Cl)c1CS(=O)(=O)c1ncc(Cl)s1

>  <assay-readout>
inhibition at 200 g/ha

>  <result>
≥ 90%

$$$$
>  <molecule>
COc1cccc(Cl)c1CS(=O)(=O)c1ncc(Cl)s1

>  <assay-readout>
inhibition at 200 g/ha

>  <result>
≥ 90%

$$$$
>  <molecule>
CCOc1c(F)cc(F)cc1CS(=O)(=O)c1ncc(Cl)s1

>  <assay-readout>
inhibition at 200 g/ha

>  <result>
≥ 90%

$$$$
>  <molecule>
CCOc1ccc(Cl)cc1CS(=O)(=O)c1ncc(Cl)s1

>  <assay-readout>
inhibition at 200 g/ha

>  <result>
≥ 90%

$$$$
